All values here come from the supplement of paper PMC9694430.

- System: LOC_OS01G60330-cb001
- PROCEDURE_TEXT: thermal shift delta Tm vs DMSO control; higher = stronger stabilization (binding);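 further: purified Escherichia coli-expressed rice kinase domain construct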
- RECORDED_CONDITIONS: 12.5 µM; protein concentration 2 µM
Counter-ions that a name gives are not always drawn.
Parameter: thermal shift delta Tm. Scope: all listed entries.
Answer format: numeric, °C implied, no suffix.

For orientation, consider the following solved cases.
MOLECULE | thermal shift delta Tm (°C)
Cc1cc(Nc2cc(N3CCN(C)CC3)nc(/C=C/c3ccccc3)n2)n[nH]1 [ENMD-2076 L-(+)-Tartaric acid] | 8.71
CN1CC[C@H](c2c(O)cc(O)c3c(=O)cc(-c4ccccc4Cl)oc23)[C@H](O)C1 [Flavopiridol HCl] | 1.31
COc1cc(N2CCC(N3CCN(C)CC3)CC2)ccc1Nc1ncnc(Nc2ccccc2S(=O)(=O)C(C)C)n1 | 0.48
CC(C)(C)c1ccc(S(=O)(=O)/C=C/C#N)cc1 | -0.21
COc1cc2ncnc(Nc3cccc(Cl)c3F)c2cc1OC(=O)N1CCN(C)C[C@H]1C | 1.34

Qu. Note down thermal shift delta Tm recorded for Cc1cc(Nc2ncc(Cl)c(Nc3ccccc3S(=O)(=O)C(C)C)n2)c(OC(C)C)cc1C1CCNCC1
Ans. 0.68

Qu. Note down thermal shift delta Tm recorded for C#Cc1cccc(Nc2ncnc3cc4c(cc23)OCCOCCOCCO4)c1
Ans. 0.51

Qu. Note down thermal shift delta Tm recorded for COc1cc(Nc2ncc(F)c(Nc3ccc4c(n3)N(COP(=O)(O)O)C(=O)C(C)(C)O4)n2)cc(OC)c1OC [R788 (Fostamatinib) Disodium]
Ans. 1.17

###

- System: LOC_OS04G35114-cb001
- PROCEDURE_TEXT: thermal shift delta Tm vs DMSO control; higher = stronger stabilization (binding)
- RECORDED_CONDITIONS: 12.5 µM; protein concentration 2 µM
Quick rule for you: thermal shift delta Tm at 0.6 °C or higher means Satisfied, lower means Not satisfied.

MOLECULE | LABEL_VALUE
Cc1cc(Nc2nc(N[C@@H](C)c3ncc(F)cn3)ncc2Cl)[nH]n1 | Satisfied
CCn1c(N)c(C(=O)NC)c(=O)c2ccc(C#CC(C)(O)COC)nc21 (stereo unspecified) | Satisfied
CC(C)(CO)n1cc(C(=O)c2cncc(NC(=O)Cc3ccc(Cl)cn3)c2)c2cnc(N)nc21 | Not satisfied
O=c1c(O)c(-c2cc(O)c(O)c(O)c2)oc2cc(O)cc(O)c12 [Myricetin] | Satisfied
C[C@H](NC(=O)c1c(N)nn2cccnc12)c1cc2cccc(C#Cc3cnn(C)c3)c2c(=O)n1-c1ccccc1 | Not satisfied
O=C1Nc2ccc(CN3C(=O)CSC3=O)cc2/C1=C/c1cc(CN2CCOCC2)c[nH]1 | Satisfied

Qu. Could you verify whether the entry NC(=O)c1ccc(N(C(N)=O)c2c(F)cccc2F)nc1-c1ccc(F)cc1F shows thermal shift delta Tm of no less than 0.6 °C?
Ans. Not satisfied

Qu. Could you verify whether the entry Cc1cc(Nc2cc(Cl)nc(Oc3ccc([N+](=O)[O-])cc3)n2)n[nH]1 [Autophinib] shows thermal shift delta Tm of no less than 0.6 °C?
Ans. Not satisfied

Qu. Could you verify whether the entry CCNC(=O)Nc1ccc(-c2nc(N3CCOC[C@@H]3C)c3c(n2)C(C)(C)S(=O)(=O)C3)cc1 shows thermal shift delta Tm of no less than 0.6 °C?
Ans. Not satisfied

Qu. Could you verify whether the entry Cc1ccc(C(=O)Nc2ccc(CN3CCN(C)CC3)c(C(F)(F)F)c2)cc1C#Cc1cnc2[nH]ncc2c1 [GZD824 Dimesylate] shows thermal shift delta Tm of no less than 0.6 °C?
Ans. Satisfied

Qu. Could you verify whether the entry Cc1cc(NC(=O)c2cccc(NC(=O)/C=C/CN(C)C)c2)ccc1Nc1nccc(-c2cccnc2)n1 shows thermal shift delta Tm of no less than 0.6 °C?
Ans. Satisfied

Qu. Could you verify whether the entry Cc1c(NC(=O)c2ccc(C(C)(C)C)cc2)cccc1-c1cn(C)c(=O)c(Nc2ccc(C(=O)N3CCOCC3)cc2)n1 shows thermal shift delta Tm of no less than 0.6 °C?
Ans. Satisfied

Qu. Could you verify whether the entry COC(=O)N[C@@H](C)CNc1nccc(-c2cn(C(C)C)nc2-c2cc(Cl)cc(NS(C)(=O)=O)c2F)n1 [Encorafenib (LGX818)] shows thermal shift delta Tm of no less than 0.6 °C?
Ans. Satisfied

Qu. Could you verify whether the entry O=C(O)c1cc(O)c2c(c1)[C@@H]([C@H]1c3cc(C(=O)O)cc(O)c3C(=O)c3c(O[C@@H]4O[C@H](CO)[C@@H](O)[C@H](O)[C@H]4O)cccc31)c1cccc(O[C@@H]3O[C@H](CO)[C@@H](O)[C@H](O)[C@H]3O)c1C2=O [Sennoside B] shows thermal shift delta Tm of no less than 0.6 °C?
Ans. Not satisfied

Qu. Could you verify whether the entry Cc1c(NC(=O)OC[C@@H]2COCCN2)cn2ncnc(Nc3ccc4c(cnn4Cc4cccc(F)c4)c3)c12 shows thermal shift delta Tm of no less than 0.6 °C?
Ans. Satisfied

Qu. Could you verify whether the entry Nc1ncnc2c1c(-c1cnc3[nH]ccc3c1)nn2C1CCCC1 shows thermal shift delta Tm of no less than 0.6 °C?
Ans. Satisfied

###

Parameter: thermal shift delta Tm. Scope: all listed entries.
- Test system: LOC_OS03G27990-cb004
- PROCEDURE_TEXT: thermal shift delta Tm vs DMSO control; higher = stronger stabilization (binding)
- RECORDED_CONDITIONS: 12.5 µM; protein concentration 2 µM
Where a name gives a salt, the structure may show the parent alone.

For orientation, consider the following solved cases.
COMPOUND | thermal shift delta Tm
CNC(=O)c1cc(Oc2ccc(NC(=O)Nc3ccc(Cl)c(C(F)(F)F)c3)cc2)ccn1 [Sorafenib Tosylate] | 0.39 °C
CCS(=O)(=O)N1CC(CC#N)(n2cc(-c3ncnc4[nH]ccc34)cn2)C1 | 0.66 °C
COc1ccc(CNC(=O)Nc2ncc([N+](=O)[O-])s2)cc1 | 0.48 °C

Qu. Under LOC_OS03G27990-cb004, report thermal shift delta Tm for N=C(N)NC(=N)NCCc1ccccc1 [Phenformin HCl]
Ans. 0.15 °C

Qu. Under LOC_OS03G27990-cb004, report thermal shift delta Tm for CC(C)(C)c1ccc(S(=O)(=O)/C=C/C#N)cc1
Ans. -0.83 °C

Qu. Under LOC_OS03G27990-cb004, report thermal shift delta Tm for Nc1nc(Nc2ccc(S(N)(=O)=O)cc2)nn1C(=O)c1c(F)cccc1F
Ans. 3.59 °C

Qu. Under LOC_OS03G27990-cb004, report thermal shift delta Tm for CN1CCN(c2nc(C3=C(c4c[nH]c5ccccc45)C(=O)NC3=O)c3ccccc3n2)CC1 [Sotrastaurin]
Ans. 0.49 °C

Qu. Under LOC_OS03G27990-cb004, report thermal shift delta Tm for Nc1nc(N)c(N=O)c(OCC2CCCCC2)n1
Ans. 2.79 °C

Qu. Under LOC_OS03G27990-cb004, report thermal shift delta Tm for CNC(=O)CN1CCC(Oc2cc3c(Nc4cccc(Cl)c4F)ncnc3cc2OC)CC1 [Sapitinib (AZD8931)]
Ans. 0.05 °C

Qu. Under LOC_OS03G27990-cb004, report thermal shift delta Tm for CCCCCCCCCCCCCCCCn1cc[n+](Cc2ccccc2)c1C
Ans. 0.11 °C

###

- Test system: LOC_OS03G27990-cb004
- PROCEDURE_TEXT: thermal shift delta Tm vs DMSO control; higher = stronger stabilization (binding)
- RECORDED_CONDITIONS: 12.5 µM; protein concentration 2 µM
Quick rule for you: thermal shift delta Tm at 0.3 °C or higher means true (1), lower means false (0).

COMPOUND | SUBJECT_OF_TEST | LABEL_VALUE
N#Cc1c(O)c2c(-c3ccc(-c4ccccc4O)cc3)csc2[nH]c1=O | LOC_OS03G27990-cb004 | true (1)
CC(C)(C)NC(=O)c1cncn1C1CCN(c2ccc(-c3nnc(C(F)(F)F)o3)cn2)CC1 | LOC_OS03G27990-cb004 | true (1)
CN(C)Cc1cccc(N=C(c2ccccc2)c2c(O)[nH]c3cc(C(=O)N(C)C)ccc23)c1 | LOC_OS03G27990-cb004 | true (1)
Cc1c(C(=O)N2CCOc3ccc(-c4ccc(N)nc4)cc3C2)ccc(S(C)(=O)=O)c1F | LOC_OS03G27990-cb004 | false (0)
O=C(Nc1nccs1)C(c1cc(F)ccc1O)N1Cc2ccccc2C1=O (configuration not stated) | LOC_OS03G27990-cb004 | false (0)

Qu. Could you verify whether the entry NC(=O)Nc1cc(-c2cccc(F)c2)sc1C(=O)N[C@H]1CCCNC1 shows thermal shift delta Tm of no less than 0.3 °C?
Ans. true (1)

Qu. Could you verify whether the entry COc1cc2ncnc(Oc3ccc(CC(=O)Nc4cnn(C(C)C)c4)cc3)c2cc1OC shows thermal shift delta Tm of no less than 0.3 °C?
Ans. false (0)

Qu. Could you verify whether the entry N#CC(=C(/N)Sc1ccccc1N)/C(C#N)=C(\N)Sc1ccccc1N shows thermal shift delta Tm of no less than 0.3 °C?
Ans. true (1)

Qu. Could you verify whether the entry N[C@@H]1CCCN(c2c(/C=C3\SC(=O)NC3=O)cccc2-c2ccccc2)C1 shows thermal shift delta Tm of no less than 0.3 °C?
Ans. true (1)
